- Measurement target: human kinase Mps-1 (Homo sapiens, UniProt P33981)
- Construct: N-terminally GST-tagged human full length recombinant Mps-1 kinase
- Procedure text: Mps-1 kinase assay (HTRF)
- Condition description: lowATP; mean; read-out: Mps1 lowATP mean IC50
# maps each entry to its pIC50
Schema: pIC50 number; meaning minus log10 of the concentration expressed in molar units.

Report pIC50 for CNC(=O)Nc1ccc(-c2cnc3c(NCCCO)nc4cc(C#N)ccc4n23)cc1 [Example 2-227] tested on human kinase Mps-1 (Homo sapiens, UniProt P33981).
5.46

----------
- Measurement target: human kinase Mps-1 (Homo sapiens)
- Construct: N-terminally GST-tagged human full length recombinant Mps-1 kinase
- Procedure text: Mps-1 kinase assay (HTRF)
- Condition description: lowATP; mean; read-out: Mps1 lowATP mean IC50
In plain terms, low IC50, meaning strictly below 900 nM, gives condition met, and everything else gives condition not met.

Below, 5 compounds whose answers are already recorded.
| Compound string | Qualitative label |
| --- | --- |
| Cc1cc2nc(NCC(C)C)c3ncc(-c4ccc(C(=O)NC5CC5)c(Cl)c4)n3c2cc1C | condition met |
| CNC(=O)Nc1ccc(-c2cnc3c(NCCS(N)(=O)=O)nc4ccc(F)cc4n23)cc1 | condition not met |
| Cn1ccc(CNc2nc3cc(C#N)ccc3n3c(-c4ccc(C(=O)NC5CC5)cc4)cnc23)n1 | condition met |
| CC(C)CNc1nc2cc(F)c(F)cc2n2c(-c3ccc(C(=O)NC4CC4)cc3)cnc12 | condition met |
| CNC(=O)Nc1ccc(-c2cnc3c(NCCCn4ccnc4)nc4cc(C#N)ccc4n23)cc1 | condition not met |

hey, is IC50 for `Cn1cc(CNc2nc3cc(C#N)ccc3n3c(-c4ccc(C(=O)NC5CC5)cc4)cnc23)cn1` lower than 900 nM or not?
condition met

hey, is IC50 for `N#Cc1ccc2c(c1)nc(NCc1ccccn1)c1ncc(-c3ccc(C(=O)NC4CC4)cc3)n12` lower than 900 nM or not?
condition met

hey, is IC50 for `O=C(NC1CC1)c1ccc(-c2cnc3c(NCc4cccc(Cl)c4)nc4ccccc4n23)cc1` lower than 900 nM or not?
condition met

hey, is IC50 for `Cc1ccc(-c2cnc3c(NCC(C)C)nc4ccccc4n23)cc1` lower than 900 nM or not?
condition not met

hey, is IC50 for `CC(C)CNc1nc2ccccc2n2c(-c3ccc(O)cc3)cnc12` lower than 900 nM or not?
condition met

hey, is IC50 for `COc1ccc(-c2cnc3c(NCC(C)C)nc4ccccc4n23)c(C)c1` lower than 900 nM or not?
condition not met

hey, is IC50 for `O=C(NC1CC1)c1ccc(-c2cnc3c(NCCCN4CCCC4=O)nc4cc(F)c(F)cc4n23)cc1` lower than 900 nM or not?
condition met

hey, is IC50 for `O=C(NC1CC1)c1ccc(-c2cnc3c(NCc4ccc(F)cc4)nc4ccc(F)cc4n23)cc1` lower than 900 nM or not?
condition met

hey, is IC50 for `CC(C)CNc1nc2ccccc2n2c(-c3ccc4c(c3)OCO4)cnc12` lower than 900 nM or not?
condition not met

hey, is IC50 for `COc1ncc(-c2cnc3c(NCC(C)C)nc4ccccc4n23)cn1` lower than 900 nM or not?
condition not met

----------
- Measurement target: human kinase Mps-1 (Homo sapiens, UniProt P33981)
- Construct: N-terminally GST-tagged human full length recombinant Mps-1 kinase
- Procedure text: Mps-1 kinase assay (HTRF)
- Condition description: lowATP; mean; read-out: Mps1 lowATP mean IC50
- Description: The human kinase Mps-1 phosphorylates a biotinylated substrate peptide. Detection of the phosphorylated product is achieved by homogenous time-resolved fluorescence resonance energy transfer (HTRF) from Europium-labelled anti-phospho-Serine/Threonine antibody as donor to streptavidin labelled with cross-linked allophycocyanin (SA-XLent) as acceptor. Compounds are tested for their inhibition of the kinase activity. […]
Reported metric: IC50 (nM)
Answer with a number only, understood to be in nM.

The cases that follow already have their IC50 on record.
| Compound | IC50 [nM] |
| --- | --- |
| CC(C)CNc1nc2ccccc2n2c(-c3cccs3)cnc12 [Example 1-21] | 3310 |
| CNC(=O)Nc1ccc(-c2cnc3c(NCCNC(C)=O)nc4cc(C#N)ccc4n23)cc1 [Example 2-228] | 9780 |
| CNC(=O)Nc1ccc(-c2cnc3c(NCc4ccc(F)cc4)nc4cc(C)c(C)cc4n23)cc1 [Example 2-164] | 414 |

Field: next compound
Report IC50 for CNC(=O)Nc1ccc(-c2cnc3c(NCCOC)nc4cc(C)c(C)cc4n23)cc1 [Example 2-162] tested on human kinase Mps-1 (Homo sapiens, UniProt P33981).
417

----------
# maps each entry to its log10(IC50)
- Measurement target: human kinase Mps-1 (Homo sapiens, UniProt P33981)
- Construct: N-terminally GST-tagged human full length recombinant Mps-1 kinase
- Procedure text: Mps-1 kinase assay (HTRF)
- Condition description: lowATP; mean; read-out: Mps1 lowATP mean IC50
Transform log10 | Measure IC50 | Unit nM

The cases that follow already have their log10(IC50) on record.
| Molecule | Measurement target | log10(IC50) |
| --- | --- | --- |
| N#Cc1ccc2c(c1)nc(NCCO)c1ncc(-c3ccc(C(=O)NC4CC4)cc3)n12 [Example 2-204] | human kinase Mps-1 (Homo sapiens, UniProt P33981) | 1.89 |
| CCNc1nc2cc(C)c(C)cc2n2c(-c3ccc(C(=O)NC4CC4)c(Cl)c3)cnc12 [Example 2-185] | human kinase Mps-1 (Homo sapiens, UniProt P33981) | 1.99 |
| O=C(NC1CC1)c1ccc(-c2cnc3c(NCc4ccccn4)nc4ccc(F)cc4n23)cc1 [Example 2-53] | human kinase Mps-1 (Homo sapiens, UniProt P33981) | 3.02 |
| CNC(=O)Nc1ccc(-c2cnc3c(NCCC(N)=O)nc4cc(C)c(C)cc4n23)cc1 [Example 2-174] | human kinase Mps-1 (Homo sapiens, UniProt P33981) | 2.89 |

I am curious: what log10(IC50) value has been reported for CNC(=O)Nc1ccc(-c2cnc3c(NCCCN4CCOCC4)nc4cc(C)c(C)cc4n23)cc1 [Example 2-160] ?
2.99

I am curious: what log10(IC50) value has been reported for O=C(NC1CC1)c1ccc(-c2cnc3c(NCCCCO)nc4cc(F)c(F)cc4n23)cc1Cl [Example 2-129] ?
3.35

I am curious: what log10(IC50) value has been reported for Cc1cc2nc(NCc3ccnn3C)c3ncc(-c4ccc(C(=O)NC5CC5)c(Cl)c4)n3c2cc1C [Example 2-199] ?
1.41

I am curious: what log10(IC50) value has been reported for Cn1nccc1CNc1nc2cc(C#N)ccc2n2c(-c3ccc(C(=O)NC4CC4)cc3)cnc12 [Example 2-220] ?
1.19

----------
# maps each entry to its IC50
- Measurement target: human kinase Mps-1 (Homo sapiens, UniProt P33981)
- Construct: N-terminally GST-tagged human full length recombinant Mps-1 kinase
- Sequence (P33981 1-857): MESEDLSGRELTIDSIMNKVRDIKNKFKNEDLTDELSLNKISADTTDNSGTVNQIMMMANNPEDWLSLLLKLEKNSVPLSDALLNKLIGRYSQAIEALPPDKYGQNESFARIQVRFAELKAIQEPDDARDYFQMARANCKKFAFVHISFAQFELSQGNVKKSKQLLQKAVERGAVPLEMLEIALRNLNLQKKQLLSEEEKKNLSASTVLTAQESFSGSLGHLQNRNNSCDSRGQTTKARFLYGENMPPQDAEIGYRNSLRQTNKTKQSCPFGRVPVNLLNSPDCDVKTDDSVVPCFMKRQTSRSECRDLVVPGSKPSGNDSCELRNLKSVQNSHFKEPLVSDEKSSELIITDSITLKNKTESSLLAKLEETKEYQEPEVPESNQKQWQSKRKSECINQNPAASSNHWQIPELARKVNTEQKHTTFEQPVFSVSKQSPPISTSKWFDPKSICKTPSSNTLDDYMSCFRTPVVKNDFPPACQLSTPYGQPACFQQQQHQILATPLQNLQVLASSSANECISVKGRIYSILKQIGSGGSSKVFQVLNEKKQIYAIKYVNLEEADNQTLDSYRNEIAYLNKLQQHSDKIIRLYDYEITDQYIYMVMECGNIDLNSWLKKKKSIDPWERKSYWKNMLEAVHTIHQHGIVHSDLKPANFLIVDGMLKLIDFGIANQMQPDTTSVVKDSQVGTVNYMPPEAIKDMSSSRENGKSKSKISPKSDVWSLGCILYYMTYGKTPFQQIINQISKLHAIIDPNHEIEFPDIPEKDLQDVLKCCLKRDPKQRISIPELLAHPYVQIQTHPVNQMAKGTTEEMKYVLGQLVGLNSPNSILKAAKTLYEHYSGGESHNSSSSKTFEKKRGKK
- Procedure text: Mps-1 kinase assay (HTRF)
- Condition description: lowATP; mean; read-out: Mps1 lowATP mean IC50
Answer with a number only, understood to be in µM.

The cases that follow already have their IC50 on record.
| Compound | Measurement target | Meas value |
| --- | --- | --- |
| CNC(=O)Nc1ccc(-c2cnc3c(NCC(F)(F)F)nc4ccc(F)cc4n23)cc1 [Example 2-64] | human kinase Mps-1 (Homo sapiens, UniProt P33981) | 6.7 |
| O=C(NC1CC1)c1ccc(-c2cnc3c(NCc4ccccc4F)nc4ccccc4n23)cc1 [Example 2-14] | human kinase Mps-1 (Homo sapiens, UniProt P33981) | 0.0721 |
| CCCNc1nc2ccc(F)cc2n2c(-c3ccc(C(=O)NC4CC4)cc3)cnc12 [Example 2-40] | human kinase Mps-1 (Homo sapiens, UniProt P33981) | 0.0285 |

I am curious: what IC50 value has been reported for CNC(=O)Nc1ccc(-c2cnc3c(NCCCCO)nc4ccc(F)cc4n23)cc1 [Example 2-63] ?
1.63

I am curious: what IC50 value has been reported for O=C(NC1CC1)c1ccc(-c2cnc3c(NCc4ccccn4)nc4cc(F)c(F)cc4n23)cc1Cl [Example 2-134] ?
6.7

I am curious: what IC50 value has been reported for CCNc1nc2ccccc2n2c(-c3ccc(C(=O)NC4CC4)cc3)cnc12 [Example 2-19] ?
0.094

I am curious: what IC50 value has been reported for CC(=O)NCCNc1nc2cc(C#N)ccc2n2c(-c3ccc(C(=O)NC4CC4)c(Cl)c3)cnc12 [Example 2-244] ?
8.82

I am curious: what IC50 value has been reported for N#Cc1ccc2c(c1)nc(NCCC(N)=O)c1ncc(-c3ccc(C(=O)NC4CC4)c(Cl)c3)n12 [Example 2-248] ?
5.83

I am curious: what IC50 value has been reported for N#Cc1ccc2c(c1)nc(NCc1cccs1)c1ncc(-c3ccc(C(=O)NC4CC4)c(Cl)c3)n12 [Example 2-241] ?
0.546
